- targetDesc: Aryl Hydrocarbon Receptor (AhR) (Homo sapiens, UniProt P35869)
- Sequence (P35869 11-848): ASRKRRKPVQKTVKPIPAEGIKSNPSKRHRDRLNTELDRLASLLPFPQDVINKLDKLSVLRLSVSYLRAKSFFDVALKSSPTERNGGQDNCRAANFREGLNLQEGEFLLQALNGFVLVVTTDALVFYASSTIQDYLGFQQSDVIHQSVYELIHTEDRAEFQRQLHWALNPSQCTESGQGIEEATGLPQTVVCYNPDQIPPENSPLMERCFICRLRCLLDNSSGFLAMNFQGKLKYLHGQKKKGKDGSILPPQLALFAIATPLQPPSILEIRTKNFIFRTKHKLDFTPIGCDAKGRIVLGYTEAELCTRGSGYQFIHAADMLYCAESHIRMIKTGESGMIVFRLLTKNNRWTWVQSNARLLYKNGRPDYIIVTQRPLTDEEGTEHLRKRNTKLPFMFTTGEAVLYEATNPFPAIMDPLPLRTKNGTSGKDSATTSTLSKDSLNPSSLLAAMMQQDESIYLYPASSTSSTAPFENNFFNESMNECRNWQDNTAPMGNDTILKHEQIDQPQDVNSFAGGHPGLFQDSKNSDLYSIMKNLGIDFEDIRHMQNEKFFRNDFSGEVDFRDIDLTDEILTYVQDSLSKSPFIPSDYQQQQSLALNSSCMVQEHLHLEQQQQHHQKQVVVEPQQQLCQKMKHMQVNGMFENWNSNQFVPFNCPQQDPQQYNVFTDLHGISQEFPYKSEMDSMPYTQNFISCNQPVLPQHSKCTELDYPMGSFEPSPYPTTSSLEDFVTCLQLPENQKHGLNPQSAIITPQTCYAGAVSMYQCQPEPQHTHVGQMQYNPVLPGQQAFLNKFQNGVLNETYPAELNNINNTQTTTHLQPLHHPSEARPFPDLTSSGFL
- experimentNotes: AhR-CYP1A1-bla LS-180 beta-lactamase reporter assay
- measurementContext: AhR-CYP1A1-bla LS-180 cells, 24 hours; read-out: EC50, AhR activation
pEC50: −log10 of the molar value.

- chemSmiles: "CC(C)c1ccc(/C=C/c2ccc(F)cc2)cc1O"
  pEC50: 7.57
